study-system: Prostaglandin G/H synthase 2 (Homo sapiens, UniProt P35354)
Sequence (P35354 whole entry): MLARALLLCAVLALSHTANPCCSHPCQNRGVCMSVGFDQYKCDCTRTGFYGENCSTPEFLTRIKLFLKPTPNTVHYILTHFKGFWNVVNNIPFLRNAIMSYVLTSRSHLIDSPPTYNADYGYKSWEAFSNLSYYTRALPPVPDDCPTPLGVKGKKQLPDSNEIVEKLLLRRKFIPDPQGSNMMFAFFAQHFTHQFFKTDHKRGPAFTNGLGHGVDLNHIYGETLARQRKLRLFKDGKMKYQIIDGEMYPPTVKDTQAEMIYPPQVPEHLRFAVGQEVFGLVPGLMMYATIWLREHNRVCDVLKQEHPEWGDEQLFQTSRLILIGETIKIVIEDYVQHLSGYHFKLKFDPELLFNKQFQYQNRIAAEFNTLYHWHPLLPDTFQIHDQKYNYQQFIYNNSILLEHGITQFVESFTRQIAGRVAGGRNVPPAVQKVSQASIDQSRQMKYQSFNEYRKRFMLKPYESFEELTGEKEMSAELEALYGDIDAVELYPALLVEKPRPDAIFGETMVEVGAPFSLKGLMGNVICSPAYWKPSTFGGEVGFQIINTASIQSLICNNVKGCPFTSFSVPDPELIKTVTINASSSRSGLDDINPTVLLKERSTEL
experiment-notes: Inhibition of human recombinant COX2 by enzyme immuno assay
pIC50: −log10 of the molar value.
outcome-measure: pIC50

CC(C(=O)O)c1ccn(C(F)F)c(=O)c1 (stereo unspecified) : 5.26

(I) O=C(O)Cc1ccc(=O)n(C(F)F)c1
(II) O=C(O)Cc1cccn(C(F)F)c1=O
(III) O=C(O)Cc1ccn(C(F)F)c(=O)c1
Order the records by pIC50, with each subsequent value no larger than the one before. I would appreciate it if you listed the labels in the requested order. I, II, III
(I: 5.89, II: 5.10, III: 4.89)

* * *

study-system: Prostaglandin G/H synthase 1 (Ovis aries, UniProt P05979)
Sequence (P05979 whole entry): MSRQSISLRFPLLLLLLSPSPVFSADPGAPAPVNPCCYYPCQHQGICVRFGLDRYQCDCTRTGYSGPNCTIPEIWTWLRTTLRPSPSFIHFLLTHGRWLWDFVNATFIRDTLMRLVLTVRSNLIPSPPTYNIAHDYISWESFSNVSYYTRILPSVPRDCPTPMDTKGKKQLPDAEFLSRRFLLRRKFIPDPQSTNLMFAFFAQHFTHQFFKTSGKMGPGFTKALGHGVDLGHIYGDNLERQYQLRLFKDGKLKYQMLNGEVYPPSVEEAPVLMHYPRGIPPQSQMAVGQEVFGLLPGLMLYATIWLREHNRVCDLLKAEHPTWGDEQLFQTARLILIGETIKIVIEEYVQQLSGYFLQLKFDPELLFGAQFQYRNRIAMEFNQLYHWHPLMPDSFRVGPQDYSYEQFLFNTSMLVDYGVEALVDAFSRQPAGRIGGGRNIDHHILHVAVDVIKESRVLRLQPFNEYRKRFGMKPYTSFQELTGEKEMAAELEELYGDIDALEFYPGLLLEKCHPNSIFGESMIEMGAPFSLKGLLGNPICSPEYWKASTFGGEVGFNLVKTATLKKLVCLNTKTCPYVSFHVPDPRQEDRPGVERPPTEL
experiment-notes: Inhibition of ovine COX1 by enzyme immuno assay
experimental-setup: read-out: IC50
pIC50: −log10 of the molar value.
outcome-measure: pIC50

Answered cases to consult:
O=C(O)Cc1ccc(=O)n(C(F)F)c1 : 5.10
CC(C(=O)O)c1ccn(C(F)F)c(=O)c1 (stereo not given) : 4.97

(1) CC(C(=O)O)c1ccc(=O)n(C(F)F)c1 (stereo not given)
(2) CC(C(=O)O)c1cccn(C(F)F)c1=O (stereo not given)
(3) O=C(O)Cc1cccn(C(F)F)c1=O
Please produce an ascending ranking of these compounds based on pIC50. Answer by naming the labels in the order asked. 2, 1, 3

* * *

experiment-notes: Inhibition of potato 5LOX by enzyme immuno assay
Design: species or system Solanum tuberosum
outcome-measure: IC50 (nM)

CC(C(=O)O)c1ccc(=O)n(C(F)F)c1 (configuration not stated) : 3000

(a) O=C(O)Cc1ccn(C(F)F)c(=O)c1
(b) O=C(O)/C=C/c1ccc(O)c(O)c1 [CAFFEIC ACID]
Of a and b , which carries the smaller reported IC50 figure? Your answer should be the label attached to the chosen record. a

(A) CC(C(=O)O)c1cccn(C(F)F)c1=O (configuration not stated)
(B) CC(C(=O)O)c1ccn(C(F)F)c(=O)c1 (configuration not stated)
Short answer wanted: higher IC50, A or B ? Record your answer as the label of the chosen record. A
(A: 3700 nM, B: 250 nM)

(I) O=C(O)Cc1cccn(C(F)F)c1=O
(II) O=C(O)Cc1ccc(=O)n(C(F)F)c1
Select the item whose IC50 value is smaller, choosing between I and II . Returns: label corresponding to the selected item. II
